Let's look at some compounds and their measured %Inh.
# Test system: CSNK1A1L
# Test Conditions: concentration: 1 μM, replicates: in singlicate; n = 1;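 note: KINOMEscan kinase panel screen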

{"Compound": "COc1ccc(NC(=O)Nc2ccc(C)c(-c3ccc(C(=O)Nc4ccncc4)cc3)c2)cc1", "%Inh / %": 3}
{"Compound": "COc1ccc(Nc2nccc(N3CCC(NC(=O)c4cccc(NC(C)=O)c4)C3)n2)cc1 (centres unmarked)", "%Inh / %": 7}
{"Compound": "Nc1nccc2scc(-c3ccc4c(c3)CCN4C(=O)Cc3cc(F)ccc3F)c12", "%Inh / %": 1}
{"Compound": "C[C@H]1CC[C@@H](C(=O)Nc2ccccc2)CN1c1cc(-c2ccc3c(N)n[nH]c3c2)nc(N)n1", "%Inh / %": 16}
{"Compound": "Cc1ccc(NC(=O)c2cccc(C#N)c2)cc1-c1ccc(C(=O)Nc2ccncc2)cc1", "%Inh / %": 15}
{"Compound": "CC(=O)Nc1n[nH]c2ncc(-c3ccccc3)cc12", "%Inh / %": 21}
{"Compound": "Fc1cccc(COc2ccc(Nc3ncnc4cc[nH]c34)cc2Cl)c1", "%Inh / %": 6}
{"Compound": "Clc1cc(Nc2ncnc3cc[nH]c23)ccc1OCc1ccccn1", "%Inh / %": 1}

====

Let's look at some molecules and their measured %Inh.
# Test system: PYK2
# Construct: gene PTK2B
# Test Conditions: concentration: 1 μM, replicates: in singlicate; n = 1

{"Molecule": "O=C(c1ccc(-c2cc(-c3c[nH]nc3-c3ccccn3)ccn2)cc1)N1CCCC1", "%Inh, %": 7}
{"Molecule": "CCc1nc(-c2cccc(N(C)S(=O)(=O)c3ccccc3)c2)c(-c2ccnc(Nc3ccc(N4CCN(C(C)=O)CC4)nc3)n2)s1", "%Inh, %": 0}
{"Molecule": "Cl.Cn1ccc(-c2cccc(Nc3ccnc4cc(-c5nccs5)ccc34)c2)n1", "%Inh, %": 45}
{"Molecule": "Nc1nccc2scc(-c3ccc4c(c3)CCN4C(=O)Cc3cc(F)ccc3F)c12", "%Inh, %": 6}
{"Molecule": "Clc1cc(Nc2ncnc3cc[nH]c23)ccc1OCc1ccccn1", "%Inh, %": 9}
{"Molecule": "Cl.Fc1ccccc1COc1ccc(Nc2ncnc3ccc(-c4nnc(C(F)(F)F)o4)cc23)cc1Cl", "%Inh, %": 14}
{"Molecule": "CCCc1ccc(S(=O)(=O)NC2CCN(c3ccnc(Nc4ccc(OC)cc4)n3)C2)cc1 (centres unmarked)", "%Inh, %": 10}
{"Molecule": "CC(=O)Nc1n[nH]c2ncc(-c3ccccc3)cc12", "%Inh, %": 12}
{"Molecule": "CS(=O)(=O)CCNCc1nc(-c2ccc3ncnc(Nc4ccc(OCc5cccc(F)c5)c(Cl)c4)c3c2)cs1.Cl", "%Inh, %": 0}
{"Molecule": "N#Cc1ccc(Oc2ccc(Nc3ncnc4cc[nH]c34)cc2Cl)cc1", "%Inh, %": 10}
{"Molecule": "O=C(CCO)NCCn1ccc2ncnc(Nc3ccc(Oc4cccc(C(F)(F)F)c4)c(Cl)c3)c21", "%Inh, %": 0}

====

# Test system: DDR2
# Test Conditions: concentration: 1 μM, replicates: in singlicate; n = 1
Let's look at some compounds and their measured %Inh.

{"Compound": "COc1ccc(-c2oc3ncnc(N)c3c2-c2ccc(OC)cc2)cc1 [SB-589132]", "Target Or System": "DDR2", "%Inh / %": 70}
{"Compound": "Clc1ccc(-c2cc(-c3c[nH]nc3-c3ccccn3)ccn2)cc1 [GW681251]", "Target Or System": "DDR2", "%Inh / %": 7}
{"Compound": "Fc1ccc(Nc2nccc(-c3c(-c4ccc(Cl)cc4)nn4ncccc34)n2)cc1F [GW829058]", "Target Or System": "DDR2", "%Inh / %": 18}
{"Compound": "O=C(NCCCN1CCCC1=O)c1cnc(NCc2cc(Cl)ccc2Cl)nc1NC1CCNCC1", "Target Or System": "DDR2", "%Inh / %": 0}
{"Compound": "Clc1cccc(-c2nc(Nc3ccncc3)c3ccccc3n2)c1 [GW873004]", "Target Or System": "DDR2", "%Inh / %": 32}
{"Compound": "CC(C)N1CCC(n2cnc(-c3ccc(F)cc3)c2-c2ccnc(N)n2)CC1 [SB-223132]", "Target Or System": "DDR2", "%Inh / %": 38}
{"Compound": "Cl.c1ccc(Cn2ccc3cc(Nc4ncnc5ccccc45)ccc32)cc1 [GW275568]", "Target Or System": "DDR2", "%Inh / %": 16}
{"Compound": "c1ccc(-c2ccc3c(-c4ccnc(Nc5ccc6c(c5)OCCO6)n4)cnn3n2)cc1 [GW818941]", "Target Or System": "DDR2", "%Inh / %": 26}
{"Compound": "O=C(Nc1ccccc1F)NC1CCN(c2ccnc(Nc3ccc(F)cc3)n2)C1 (stereo not shown) [GSK1379722]", "Target Or System": "DDR2", "%Inh / %": 11}
{"Compound": "Cl.Fc1ccccc1COc1ccc(Nc2ncnc3ccc(-c4nnc(C(F)(F)F)o4)cc23)cc1Cl [GW424170]", "Target Or System": "DDR2", "%Inh / %": 18}

The origin of these recorded values is paper PMC5540273.
